The reported measurements were obtained from patent US7390806B2.

- System: S. aureus ATCC 29213
- Measurement notes: MIC determination, S. aureus ATCC 29213
- Format: cell-based, Staphylococcus aureus
- Condition set: Table 1
Recorded endpoint: MIC S. aureus ATCC 29213 (micrograms per ml)
Answers are plain numbers, in micrograms per ml.

Use these answered entries as a reference point.
molecule="Oc1cccc2cccnc12 [Compound 85, 8-hydroxyquinoline]" recorded_endpoint="MIC S. aureus ATCC 29213" observed_measurement=2
molecule="Oc1cccc2cccnc12 [Compound 96, 8-hydroxyquinoline]" recorded_endpoint="MIC S. aureus ATCC 29213" observed_measurement=2
molecule="Oc1cccc2cccnc12 [Compound 73, 8-hydroxyquinoline]" recorded_endpoint="MIC S. aureus ATCC 29213" observed_measurement=2
molecule="C#CB(Oc1cccc2cccnc12)c1ccccc1Cl [Compound 43]" recorded_endpoint="MIC S. aureus ATCC 29213" observed_measurement=1

Q: Sample Oc1c(Cl)cc(Cl)c2cccnc12 [Compound 71] — what was its MIC S. aureus ATCC 29213?
Ans: 2

###

- Test system: S. aureus ATCC 29213
- Measurement notes: MIC determination, S. aureus ATCC 29213
- Format: cell-based, Staphylococcus aureus
- Condition set: Table 1
Would you kindly list MIC S. aureus ATCC 29213 for each of these compounds?

# example entries with known answers
compound="Oc1cccc2cccnc12 [Compound 75, 8-hydroxyquinoline]" observed_measurement="2 micrograms per ml"
compound="Oc1ccc(F)c2cccnc12 [Compound 62]" observed_measurement="2 micrograms per ml"
compound="Oc1cccc2cccnc12 [Compound 95, 8-hydroxyquinoline]" observed_measurement="2 micrograms per ml"

Lab note: each compound below needs its MIC S. aureus ATCC 29213 filled in.
1. Oc1cccc2cccnc12 [Compound 72, 8-hydroxyquinoline]
2. Oc1cccc2cccnc12 [Compound 81, 8-hydroxyquinoline]
3. Oc1cccc2cccnc12 [Compound 53, 8-hydroxyquinoline]
4. Oc1cccc2cccnc12 [Compound 61, 8-hydroxyquinoline]
5. Oc1cccc2cccnc12 [Compound 92, 8-hydroxyquinoline]
6. Cc1ccnc2c(O)cccc12 [Compound 66]
7. Oc1cccc2cccnc12 [Compound 50, 8-hydroxyquinoline]

Ans:
["4 micrograms per ml", "2 micrograms per ml", "2 micrograms per ml", "2 micrograms per ml", "2 micrograms per ml", "2 micrograms per ml", "2 micrograms per ml"]

Quick one: give me MIC S. aureus ATCC 29213 for each item below, same order please.
1. Oc1cccc2cccnc12 [Compound 98, 8-hydroxyquinoline]
2. Oc1cccc2cccnc12 [Compound 80, 8-hydroxyquinoline]
3. CC1(C)S[C@@H]2[C@H](NC(=O)Cc3ccccc3)C(=O)N2[C@H]1C(=O)O [Pen G, reference compound]
4. Oc1cccc2cccnc12 [Compound 37, 8-hydroxyquinoline]
5. Oc1cccc2cccnc12 [Compound 59, 8-hydroxyquinoline]
6. Fc1cccc(B(Oc2cccc3cccnc23)C2CC2)c1 [Compound 70]

Ans:
1: 2 micrograms per ml; 2: 2 micrograms per ml; 3: 0.5 micrograms per ml; 4: 1 micrograms per ml; 5: 2 micrograms per ml; 6: 2 micrograms per ml

Answer for every listed entry: what is its MIC S. aureus ATCC 29213? The entries follow.
1. Oc1cccc2cccnc12 [Compound 45, 8-hydroxyquinoline]
2. Oc1ccc(F)c2cccnc12 [Compound 64]
3. Oc1cccc2cccnc12 [Compound 99, 8-hydroxyquinoline]
4. Oc1cccc2cccnc12 [Compound 27, 8-hydroxyquinoline]
5. Oc1cccc2cccnc12 [Compound 89, 8-hydroxyquinoline]

Ans:
1 micrograms per ml
2 micrograms per ml
2 micrograms per ml
0.5 micrograms per ml
2 micrograms per ml

###

- Test system: E. faecium CT-26
- Measurement notes: MIC determination, E. faecium CT-26
- Assay type: cell-based, Enterococcus faecium
- Condition set: Enterococcus faecium, CT26, Table 1; read-out: MIC E. faecium CT-26
Recorded endpoint: log10(MIC) (log10 of the value in µg/mL)
Recorded MIC (log10, µg/mL)

Consider the worked cases shown below.
molecule=Oc1ccc(Cl)c2cccnc12 observed_measurement=0.30
molecule=Oc1c(Br)cc(Br)c2cccnc12 observed_measurement=1.51
molecule="Oc1cccc2nc[nH]c12 [Compound 11, 4-hydroxybenzimidazole]" observed_measurement=0.90
molecule="N#Cc1ccc(O)c2ncccc12 [Compound 21, 5-cyano-8-hydroxyquinoline]" observed_measurement=0.90
molecule=Oc1ccc(F)c2cccnc12 observed_measurement=0.60

State recorded log10(MIC) for all listed molecules.
1. O=[N+]([O-])c1ccc(O)c2ncccc12
2. Cc1ccnc2c(O)cccc12
3. Cc1onc(-c2ccccc2Cl)c1C(=O)N[C@@H]1C(=O)N2[C@@H]1SC(C)(C)[C@@H]2C(=O)O [Cloxacillin, reference compound]
4. CO/N=C(\C(=O)N[C@@H]1C(=O)N2C(C(=O)O)=C(CSc3nc(=O)c(=O)[nH]n3C)CS[C@H]12)c1csc(N)n1 [Ceftriaxone, reference compound]
5. COc1cccc2c(O)cc(C(=O)O)nc12

Ans:
1: 1.20; 2: 0.60; 3: 1.81; 4: 1.81; 5: 1.20

Quick request: log10(MIC) for each listed item, please.
1. C[C@@H](O)[C@H]1C(=O)N2C(C(=O)O)=C(SCCN=CN)C[C@H]12 [Imipenem, reference compound]
2. O=C(O)c1cc(O)c2ccccc2n1

Ans:
1. 1.81
2. 0.00

###

- Tested on: S. epidermidis ATCC 12228
- Measurement notes: MIC determination, S. epidermidis ATCC 12228
- Format: cell-based, Staphylococcus epidermidis
- Condition set: Staphylococcus epidermidis, ATCC12228, Table 1; read-out: MIC S. epidermidis ATCC 12228
Exercise: for every item that follows, state its recorded MIC.
One number for each entry, in µg/mL.

See these solved cases before continuing.
molecule="Oc1cccc2nc[nH]c12 [Compound 11, 4-hydroxybenzimidazole]" system_name="S. epidermidis ATCC 12228" observed_measurement=4
molecule="Oc1c(Br)cc(Br)c2cccnc12 [Compound 24]" system_name="S. epidermidis ATCC 12228" observed_measurement=8
molecule="C[C@@H](O)[C@H]1C(=O)N2C(C(=O)O)=C(SCCN=CN)C[C@H]12 [Imipenem, reference compound]" system_name="S. epidermidis ATCC 12228" observed_measurement=0.125
molecule="Oc1ccc(F)c2cccnc12 [Compound 12]" system_name="S. epidermidis ATCC 12228" observed_measurement=2

Go through the items and report each one's MIC.
1. COc1cccc2c(O)cc(C(=O)O)nc12 [Compound 25]
2. CO/N=C(\C(=O)N[C@@H]1C(=O)N2C(C(=O)O)=C(CSc3nc(=O)c(=O)[nH]n3C)CS[C@H]12)c1csc(N)n1 [Ceftriaxone, reference compound]
3. Cc1ccnc2c(O)cccc12 [Compound 14]
4. C[C@@H](O)[C@H]1C(=O)N2C(C(=O)O)=C(S[C@@H]3CN[C@H](C(=O)N(C)C)C3)[C@H](C)[C@H]12 [Meropenem, reference compound]

Ans:
1: 8; 2: 1; 3: 1; 4: 0.06

Q: For the molecule O=[N+]([O-])c1ccc(O)c2ncccc12 [Compound 22] , what MIC is on record?
Ans: 4

###

- Test system: S. aureus ATCC 29213
- Measurement notes: MIC determination, S. aureus ATCC 29213
- Type: cell-based, Staphylococcus aureus
- Condition set: Table 1
Recorded endpoint: MIC S. aureus ATCC 29213 (micrograms per ml)
Give bare numbers, in micrograms per ml.

Solved entries:
compound="Oc1cccc2cccnc12 [Compound 69, 8-hydroxyquinoline]" recorded_endpoint="MIC S. aureus ATCC 29213" observed_measurement=2
compound="Oc1ccc(Cl)c2cccnc12 [Compound 49]" recorded_endpoint="MIC S. aureus ATCC 29213" observed_measurement=2
compound="Oc1cccc2cccnc12 [Compound 74, 8-hydroxyquinoline]" recorded_endpoint="MIC S. aureus ATCC 29213" observed_measurement=2
compound="Oc1cccc2cccnc12 [Compound 90, 8-hydroxyquinoline]" recorded_endpoint="MIC S. aureus ATCC 29213" observed_measurement=2
compound="CB(Oc1cccc2cccnc12)c1cccs1 [Compound 26]" recorded_endpoint="MIC S. aureus ATCC 29213" observed_measurement=0.5
compound="Oc1cccc2cccnc12 [Compound 39, 8-hydroxyquinoline]" recorded_endpoint="MIC S. aureus ATCC 29213" observed_measurement=1
compound="Cc1ccnc2c(O)cccc12 [Compound 67]" recorded_endpoint="MIC S. aureus ATCC 29213" observed_measurement=2
compound="Oc1cccc2cccnc12 [Compound 100, 8-hydroxyquinoline]" recorded_endpoint="MIC S. aureus ATCC 29213" observed_measurement=2

Please go through the list and note MIC S. aureus ATCC 29213 for each compound.
1. Oc1cccc2cccnc12 [Compound 91, 8-hydroxyquinoline]
2. Oc1cccc2cccnc12 [Compound 52, 8-hydroxyquinoline]
3. Oc1cccc2cccnc12 [Compound 51, 8-hydroxyquinoline]
4. Oc1cccc2cccnc12 [Compound 88, 8-hydroxyquinoline]
5. Oc1cccc2cccnc12 [Compound 10, 8-hydroxyquinoline]
6. Oc1cccc2cccnc12 [Compound 77, 8-hydroxyquinoline]
7. Clc1cccc(B(Oc2cccc3cccnc23)c2cccs2)c1 [Compound 36]

Ans:
1. 2
2. 2
3. 2
4. 2
5. 1
6. 2
7. 1
